Test: chemical genetic growth profiling, strain panel (AID 1159580);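 note: tested at 20 µM; growth read once vehicle control cultures reached saturation at 30 °C; 1 = growth at the plate median or of vehicle wells; lower values mean less growth of the strain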
Settings: S. cerevisiae deletion strains, growth OD, locus YDR226W, strain ADK1
The whole screen tested about 5,500 compounds, of which about 2,000 (36%) were called active. Roughly 18% stayed inconclusive and do not appear here. Cut-off read from the data, not from the text of the source: active = normalized growth mostly below about 0.91 (no sharp cut-off); inconclusive = no clear call, values can overlap the other calls; inactive = mostly above about 0.92. Some of the results follow.
Possible outcomes: class 1 = active, class 0 = inactive

MOLECULE | CATEGORY
N#C/C(=C\c1ccc(C(F)(F)F)cc1)c1ccc(O)cc1 | class 0
O=C(Oc1ccc(C2SCCS2)cc1)c1cccs1 | class 0
Cc1nc(C(F)(F)F)ccc1C(=O)Sc1nnc(-c2ccc(C(F)(F)F)nc2C)o1 | class 0
Cc1nc([N+](=O)[O-])cn1CC(=O)c1ccc(Cl)cc1 | class 0
N#Cc1c(N)sc2c1CCc1ccccc1-2 | class 1
CC1CCc2c(sc3ncnc(Sc4ccccc4)c23)C1 (stereo unspecified) | class 0
